Source of measurements: ChEMBL document CHEMBL2094269

# Lookup of reported IC50 keyed by entry
Assay name: DNDI: Cytotoxicity against human MRC-5 lung fibroblast cells.
Condition set: IC50

{"Molecule": "CCCCNCc1[nH]c2ccccc2c1Cl", "IC50": "> 20.8 µM"}
{"Molecule": "COc1ccccc1N1CCN(Cc2cc(Cl)c3cccnc3c2O)CC1", "IC50": "> 4.17 µM"}
{"Molecule": "N/C(Cc1cccs1)=N\\OC(=O)C12CC3CC(CC(C3)C1)C2", "IC50": "> 20.8 µM"}
{"Molecule": "COC(=O)c1c(SCC(=O)Nc2cccc(OC)c2)[nH]c2ccccc2c1=O", "IC50": "> 20.8 µM"}
{"Molecule": "CC(C)(C)C1C/C(=C\\c2cccnc2)C(=O)/C(=C/c2cccnc2)C1 (stereo not given)", "IC50": "> 4.17 µM"}
